Test System: BCL6 (Homo sapiens (Human))
Protocol Notes: Immunofluorescence high content imaging of BCL6 degradation in T47D cells
Type: cell-based
Particulars: T47D
Endpoint Label: Dmax

compound="CCn1c(=O)c(OCC(=O)NC)cc2cc(Nc3nc(N4CCO[C@H](COc5ccc6c(c5)C(=O)N(C5CCC(=O)NC5=O)C6=O)C4)ncc3Cl)ccc21 (stereo partly drawn)" endpoint_label=Dmax readout_value="< 50%"
compound="CNC(=O)COc1cc2cc(Nc3nc(N4CCN(C(C)(C)CN5CCN(c6ccc7c(c6)C(=O)N(C6CCC(=O)NC6=O)C7=O)CC5)CC4)ncc3Cl)ccc2n(C)c1=O (stereo not drawn)" endpoint_label=Dmax readout_value="50 to 70%"
compound="CNC(=O)COc1cc2cc(Nc3nc(N4CCC(OC5CCN(c6ccc7c(c6)C(=O)N(C6CCC(=O)NC6=O)C7=O)CC5)CC4)ncc3Cl)ccc2n(C)c1=O (stereo not drawn)" endpoint_label=Dmax readout_value="50 to 70%"
compound="CC(=O)COc1cc2cc(Nc3nc(N4CCN(C(C)(C)C5CCN(c6ccc7c(c6)C(=O)N(C6CCC(=O)NC6=O)C7=O)CC5)CC4)ncc3Cl)ccc2n(C)c1=O (stereo not drawn)" endpoint_label=Dmax readout_value="≥ 70%"
compound="CNC(=O)COc1cc2cc(Nc3nc(N4CCC(O[C@H]5C[C@H](N6CCN(c7ccc8c(c7)C(=O)N(C7CCC(=O)NC7=O)C8=O)CC6)C5)CC4)ncc3Cl)ccc2n(C(C)C)c1=O (stereo partly drawn)" endpoint_label=Dmax readout_value="< 50%"
compound="CCn1c(=O)c(OCC(=O)NC)cc2cc(Nc3nc(N4CCN(CC5CCN(c6cccc7c6C(=O)N(C6CCC(=O)NC6=O)C7=O)CC5)CC4)ncc3Cl)ccc21 (stereo not drawn)" endpoint_label=Dmax readout_value="50 to 70%"
compound="CNC(=O)COc1cc2cc(Nc3nc(N4CCC(CN5CCC6(C5)CN(c5cccc7c5C(=O)N(C5CCC(=O)NC5=O)C7=O)C6)CC4)ncc3Cl)ccc2n(C(C)C)c1=O (stereo not drawn)" endpoint_label=Dmax readout_value="50 to 70%"
compound="CNC(=O)COc1cc2cc(Nc3nc(N4CCC(CCOC5CN(c6cccc7c6C(=O)N(C6CCC(=O)NC6=O)C7=O)C5)CC4)ncc3Cl)ccc2n(C)c1=O (stereo not drawn)" endpoint_label=Dmax readout_value="50 to 70%"
compound="CNC(=O)COc1cc2cc(Nc3nc(N4CCC(CN5CC(N6CCN(c7cccc8c7C(=O)N(C7CCC(=O)NC7=O)C8=O)CC6)C5)CC4)ncc3Cl)ccc2n(C(C)C)c1=O (stereo not drawn)" endpoint_label=Dmax readout_value="≥ 70%"
compound="CNC(=O)COc1cc2cc(Nc3nc(N4CCC(CN5CCN(c6cc(OC)cc(C(=O)NC7CCC(=O)NC7=O)c6F)CC5)CC4)ncc3Cl)ccc2n(C(C)C)c1=O (stereo not drawn)" endpoint_label=Dmax readout_value="50 to 70%"
compound="CNC(=O)COc1cc2cc(Nc3nc(N4CCN(C(C)(C)C5CCN(c6ccc7c(c6)C(=O)N(C6CCC(=O)NC6=O)C7=O)CC5)CC4)ncc3Cl)ccc2n(C(C)C)c1=O (stereo not drawn)" endpoint_label=Dmax readout_value="≥ 70%"
compound=CNC(=O)COc1cc2cc(Nc3nc(N4CCC(CN5CCC6(CC5)CCN(c5ccc(N7CCC(=O)NC7=O)cc5)C6)CC4)ncc3Cl)ccc2n(C(C)C)c1=O endpoint_label=Dmax readout_value="< 50%"
compound="CNC(=O)COc1cc2cc(Nc3nc(N4CCO[C@H](COc5ccc6c(c5)C(=O)N(C5CCC(=O)NC5=O)C6=O)C4)ncc3Cl)ccc2n(C)c1=O (stereo partly drawn)" endpoint_label=Dmax readout_value="50 to 70%"
compound="CCn1c(=O)c(OCC(=O)NC)cc2cc(Nc3cc(N4CCN(C(C)(C)C5CCN(c6ccc7c(c6)C(=O)N(C6CCC(=O)NC6=O)C7=O)CC5)CC4)ncc3Cl)ccc21 (stereo not drawn)" endpoint_label=Dmax readout_value="50 to 70%"
compound="CNC(=O)COc1cc2cc(Nc3nc(N4CCC(C5(N6CCC(c7ccc8c(c7)C(=O)N(C7CCC(=O)NC7=O)C8=O)CC6)CC5)CC4)ncc3Cl)ccc2n(C(C)C)c1=O (stereo not drawn)" endpoint_label=Dmax readout_value="50 to 70%"
compound="CNC(=O)COc1cc2cc(Nc3nc(N4CCN(CC5CCN(c6cc(OC)cc(C(=O)NC7CCC(=O)NC7=O)c6F)CC5)CC4)ncc3Cl)ccc2n(C)c1=O (stereo not drawn)" endpoint_label=Dmax readout_value="50 to 70%"
compound="CCn1c(=O)c(OCC(=O)NC)cc2cc(Nc3nc(N4CCN(C(C)(C)C5CCN(c6ccc7c(c6)CN(C6CCC(=O)NC6=O)C7=O)CC5)CC4)ncc3Cl)ccc21 (stereo not drawn)" endpoint_label=Dmax readout_value="50 to 70%"
compound="CNC(=O)COc1cc2cc(Nc3nc(N4CC5CC4CN5CC4CCN(c5ccc6c(c5)C(=O)N(C5CCC(=O)NC5=O)C6=O)CC4)ncc3Cl)ccc2n(C)c1=O (stereo not drawn)" endpoint_label=Dmax readout_value="< 50%"
compound="CNC(=O)COc1cc2cc(Nc3nc(N4CCC(OC5CC6(CCN(c7cccc8c7CN(C7CCC(=O)NC7=O)C8=O)CC6)C5)CC4)ncc3Cl)ccc2n(C(C)C)c1=O (stereo not drawn)" endpoint_label=Dmax readout_value="≥ 70%"
compound="CNC(=O)COc1cc2cc(Nc3nc(N4CCC(O[C@H]5C[C@H](N6CCC(c7ccc8c(c7)C(=O)N(C7CCC(=O)NC7=O)C8=O)CC6)C5)CC4)ncc3Cl)ccc2n(C)c1=O (stereo partly drawn)" endpoint_label=Dmax readout_value="≥ 70%"
compound="CNC(=O)COc1cc2cc(Nc3nc(N4CCN(CC5CCC6(CC5)CN(c5ccc(F)c7c5C(=O)N(C5CCC(=O)NC5=O)C7=O)C6)CC4)ncc3Cl)ccc2n(C(C)C)c1=O (stereo not drawn)" endpoint_label=Dmax readout_value="≥ 70%"

###

Test System: BCL6 (Homo sapiens (Human), UniProt P41182)
Protocol Notes: Immunofluorescence high content imaging of BCL6 degradation in T47D cells
Assay type: cell-based
Particulars: T47D cells
Endpoint Label: IC50

compound="CNC(=O)COc1cc2cc(Nc3nc(N4CCC5(CC4)CN(CC4CCN(c6ccc7c(c6)C(=O)N(C6CCC(=O)NC6=O)C7=O)CC4)C5)ncc3Cl)ccc2n(C(C)C)c1=O (stereo not drawn) [compound 384]" test_system="BCL6 (Homo sapiens (Human), UniProt P41182)" readout_value="< 10 nM"
compound="CNC(=O)COc1cc2cc(Nc3nc(N4CCC(OC5CC6(CCN(c7ccc(C(=O)NC8CCC(=O)NC8=O)c(OC)c7)CC6)C5)CC4)ncc3Cl)ccc2n(C(C)C)c1=O (stereo not drawn) [compound 432]" test_system="BCL6 (Homo sapiens (Human), UniProt P41182)" readout_value="10 to 50 nM"
compound="CCn1c(=O)c(OCC(=O)NC)cc2cc(Nc3nc(N4CCC(OCC5CCN(c6cccc7c6C(=O)N(C6CCC(=O)NC6=O)C7=O)CC5)CC4)ncc3Cl)ccc21 (stereo not drawn) [compound 330]" test_system="BCL6 (Homo sapiens (Human), UniProt P41182)" readout_value="< 10 nM"
compound="CNC(=O)COc1cc2cc(Nc3nc(N4CCC(F)(CN5CCN(c6cccc7c6C(=O)N(C6CCC(=O)NC6=O)C7=O)CC5)CC4)ncc3Cl)ccc2n(C)c1=O (stereo not drawn) [compound 342]" test_system="BCL6 (Homo sapiens (Human), UniProt P41182)" readout_value="< 10 nM"
compound="CNC(=O)COc1cc2cc(Nc3nc(N4CCC(CN5CCC6(CC5)CN(c5cccc7c5C(=O)N(C5CCC(=O)NC5=O)C7=O)C6)CC4)ncc3Cl)ccc2n(C(C)C)c1=O (stereo not drawn) [compound 418]" test_system="BCL6 (Homo sapiens (Human), UniProt P41182)" readout_value="< 10 nM"
compound="CNC(=O)COc1cc2cc(Nc3nc(N4CCN(CC5CCN(c6ccc7c(c6)CN(C6CCC(=O)NC6=O)C7=O)CC5)CC4)ncc3Cl)ccc2n(C(C)C)c1=O (stereo not drawn) [compound 388]" test_system="BCL6 (Homo sapiens (Human), UniProt P41182)" readout_value="< 10 nM"
compound="CNC(=O)COc1cc2cc(Nc3nc(N4CCC(CN5CCC(c6cccc(N7CCC(=O)NC7=O)c6)CC5)CC4)ncc3Cl)ccc2n(C(C)C)c1=O [compound 416]" test_system="BCL6 (Homo sapiens (Human), UniProt P41182)" readout_value="≥ 100 nM"
compound="CNC(=O)COc1cc2cc(Nc3nc(N4CCC5(CC4)CN(CC4CCN(c6ccc7c(c6)CN(C6CCC(=O)NC6=O)C7=O)CC4)C5)ncc3Cl)ccc2n(C(C)C)c1=O (stereo not drawn) [compound 413]" test_system="BCL6 (Homo sapiens (Human), UniProt P41182)" readout_value="< 10 nM"
compound="CCn1c(=O)c(OCC(=O)NC)cc2cc(Nc3nc(N4CCC(CN5CC(C6CN(c7ccc8c(c7)C(=O)N(C7CCC(=O)NC7=O)C8=O)C6)C5)CC4)ncc3Cl)ccc21 (stereo not drawn) [compound 316]" test_system="BCL6 (Homo sapiens (Human), UniProt P41182)" readout_value="< 10 nM"
compound="CNC(=O)COc1cc2cc(Nc3nc(N4CCC(CN5CC6(CCN(c7ccc(C(=O)NC8CCC(=O)NC8=O)c(OC)c7)CC6)C5)CC4)ncc3Cl)ccc2n(C(C)C)c1=O (stereo not drawn) [compound 438]" test_system="BCL6 (Homo sapiens (Human), UniProt P41182)" readout_value="10 to 50 nM"
compound="CC[C@@H]1CN(c2ncc(Cl)c(Nc3ccc4c(c3)cc(OCC(=O)NC)c(=O)n4C(C)C)n2)C[C@@H](COc2ccc3c(c2)C(=O)N(C2CCC(=O)NC2=O)C3=O)O1 (stereo partly drawn) [compound 389]" test_system="BCL6 (Homo sapiens (Human), UniProt P41182)" readout_value="10 to 50 nM"
compound="CNC(=O)COc1cc2cc(Nc3nc(N4CCN(CC5CCCN5c5ccc6c(c5)C(=O)N(C5CCC(=O)NC5=O)C6=O)CC4)ncc3Cl)ccc2n(C(C)C)c1=O (stereo not drawn) [compound 380]" test_system="BCL6 (Homo sapiens (Human), UniProt P41182)" readout_value="10 to 50 nM"
compound="CNC(=O)COc1cc2cc(Nc3nc(N4CCN(CC5CCN(c6cc(OC)c(C(=O)NC7CCC(=O)NC7=O)c(OC)c6)CC5)CC4)ncc3Cl)ccc2n(C)c1=O (stereo not drawn) [compound 368]" test_system="BCL6 (Homo sapiens (Human), UniProt P41182)" readout_value="10 to 50 nM"
compound="CNC(=O)COc1cc2cc(Nc3nc(N4CCO[C@H](COc5ccc(C(=O)NC6CCC(=O)NC6=O)c(OC)c5)C4)ncc3Cl)ccc2n(C(C)C)c1=O (stereo partly drawn) [compound 351]" test_system="BCL6 (Homo sapiens (Human), UniProt P41182)" readout_value="10 to 50 nM"
compound="CNC(=O)COc1cc2cc(Nc3nc(N4CC5(CC(OC6CCN(c7cccc8c7C(=O)N(C7CCC(=O)NC7=O)C8=O)CC6)C5)C4)ncc3Cl)ccc2n(C(C)C)c1=O (stereo not drawn) [compound 406]" test_system="BCL6 (Homo sapiens (Human), UniProt P41182)" readout_value="< 10 nM"
compound="CNC(=O)COc1cc2cc(Nc3nc(N4CCN(CC5(F)CCN(c6cccc7c6C(=O)N(C6CCC(=O)NC6=O)C7=O)CC5)CC4)ncc3Cl)ccc2n(C)c1=O (stereo not drawn) [compound 341]" test_system="BCL6 (Homo sapiens (Human), UniProt P41182)" readout_value="< 10 nM"
compound="CNC(=O)COc1cc2cc(Nc3nc(N4CC5(CCN(CC6CCN(c7ccc8c(c7)C(=O)N(C7CCC(=O)NC7=O)C8=O)CC6)CC5)C4)ncc3Cl)ccc2n(C(C)C)c1=O (stereo not drawn) [compound 422]" test_system="BCL6 (Homo sapiens (Human), UniProt P41182)" readout_value="< 10 nM"
compound="CCCCn1c(=O)c(OCC(=O)NC)cc2cc(Nc3nc(N4CCC[C@H](COc5cccc6c5C(=O)N(C5CCC(=O)NC5=O)C6=O)C4)ncc3Cl)ccc21 (stereo partly drawn) [compound 324]" test_system="BCL6 (Homo sapiens (Human), UniProt P41182)" readout_value="< 10 nM"
compound="CNC(=O)COc1cc2cc(Nc3nc(N4CCO[C@H](COc5ccc(C(=O)NC6CCC(=O)NC6=O)cc5)C4)ncc3Cl)ccc2n(C(C)C)c1=O (stereo partly drawn) [compound 348]" test_system="BCL6 (Homo sapiens (Human), UniProt P41182)" readout_value="10 to 50 nM"
compound="CNC(=O)COc1cc2cc(Nc3nc(N4CCN(CC5CCN(c6ccc(C(=O)NC7CCC(=O)NC7=O)c(OC(C)C)c6)CC5)CC4)ncc3Cl)ccc2n(C)c1=O (stereo not drawn) [compound 358]" test_system="BCL6 (Homo sapiens (Human), UniProt P41182)" readout_value="≥ 100 nM"
compound="CNC(=O)COc1cc2cc(Nc3nc(N4CCC(OC5CCC6(CC5)CN(c5cccc7c5C(=O)N(C5CCC(=O)NC5=O)C7=O)C6)CC4)ncc3Cl)ccc2n(C(C)C)c1=O (stereo not drawn) [compound 434]" test_system="BCL6 (Homo sapiens (Human), UniProt P41182)" readout_value="< 10 nM"
